method-description: NCI Yeast Anticancer Drug Screen. Data for the bub3 strain (AID 167)
settings: S. cerevisiae bub3 mutant strain, at 50.0 µM, hits give high values
About 79,000 compounds went through this panel and 15% of them were active in at least one assay; those are over-represented in the sample as a whole.
// reported growth inhibition for each item listed
Lab book: enter the figure in %, no units written.

>>> recorded_number("CN(N=O)C(=O)ON1C(=O)CCC1=O")
18.8
>>> recorded_number("CC(=O)OC1CC2(C)C(=CC1C1SCCS1)CCC1C2CCC2(C)C(OC(C)=O)CCC12 (stereo not given)")
-49.5
>>> recorded_number("Clc1ccc([C@H]2N[C@@H]2c2ccccn2)cc1")
9.15
>>> recorded_number("CCCCCCCCSP(SCCCCCCCC)SCCCCCCCC")
1.25
>>> recorded_number("CC(C)C(Br)C(=O)O (stereo not given)")
-9.5

Query: growth inhibition; subject: `CCCC(=O)[O-].N.N.N.N.N.[Co+3].[O-][Cl+3]([O-])([O-])[O-]`
1.7

Check `O=C(O)C(=O)O.[NH2-].[NH2-].[Pt+2]` too.
2.6

Check O=[N+]([O-])OC(c1ccncc1)C(O[N+](=O)[O-])c1ccncc1 (stereo not given) too.
-5.3

Check `CC(=N\O)/C(C)=N/O.CC(=N\O)/C(C)=N/O.CC(=N\O)/C(C)=N/O.CC(=N\O)/C(C)=N/O.[Cu].[Cu]` too.
-13.9

Check `O=C1Cc2ccccc2C(=O)N1CCN1CCOCC1` too.
-1.5

Check COc1ccc([As]=O)cc1N (stereo not given) too.
-7.45

Check `O=S(=O)(c1ccccc1)c1ccccc1` too.
0.1

Check `NC1=Nc2ccccc2Sc2ccccc21` too.
-23.5

Check CC(Oc1ccc([N+](=O)[O-])cc1Cl)C(=O)Nc1ccc(S(=O)(=O)F)cc1 (stereo not given) too.
0.2

Check `O=C(Nc1cccc(Cl)c1Cl)C(Cl)(Cl)Cl` too.
31.2

Check C[C@H](CCC1SC1(C)C)C1CCC2(C)C3=C(CC[C@]12C)[C@@]1(C)CC[C@H](O)C(C)(C)C1CC3 (stereo not given in full) too.
-5.2

Check `CN(C1CCCC1)C1CCCC1` too.
2.25

Check `[N-]=[N+]=CC(=O)c1ccc(Cl)cc1` too.
50.1

Check COc1cc(C2c3[nH]c4ccccc4c3C[C@H]3COC(=O)N23)cc(OC)c1OC (stereo not given in full) too.
54

Check `O=[N+]([O-])c1cc(S(=O)(=O)F)cc(Cl)c1O` too.
-2.75

Check CC1OCN2CCCCC12 (stereo not given) too.
-25.1

Check CC(C)(C)C1=C(Br)C(Br)(C(C)(C)C)OP1(=O)c1ccccc1 (stereo not given) too.
-5

Check `Cc1nc2ccccc2c(=O)n1-c1ccccc1F` too.
-20.9

Check `CCC(Br)(CC)C(=O)NC(N)=O` too.
-10.8

Check CCOC(=O)C12CCC(=O)C=C1CN(C)CC2 (stereo not given) too.
-13.2
